Taken from PubChem BioAssay AID1205.

test: DSSTox (CPDBAS) Carcinogenic Potency Database Summary MultiCellCall Results
details: animal carcinogenicity bioassays, multi-cell call summary
Source text: The Carcinogenic Potency Database (CPDB) is a unique and widely used international resource of the results of over 6500 chronic, long-term animal cancer tests on over 1500 chemical substances. The CPDB provides easy access to the bioassay literature, with qualitative and quantitative analyses of both positive and negative experiments that have been published over the past 50 years in the general literature and by the National Cancer Institute/National Toxicology Program. […]
Calls of active or inactive are those of the source.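 How the source made its calls: active means tumour findings in long-term animal cancer tests in more than one sex, species or organ; inactive means no tumour finding and more than one negative test.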
measured.parameter: outcome

Example results:
{"structure.smiles": "CCN(C#N)N=O", "outcome": "active; multisex active"}
{"structure.smiles": "NNC=O", "outcome": "active; multisex active"}
{"structure.smiles": "O=NN1CCCCCCCCCCCC1", "outcome": "active; multisex active"}
{"structure.smiles": "CC(=O)Nc1ccc2c(c1)C(=O)c1ccccc1-2", "outcome": "active; multisite active"}
{"structure.smiles": "CCOC(=O)C(C)(C)Oc1ccc(Cl)cc1", "outcome": "active; multisite active"}
{"structure.smiles": "CCN(C)N=O", "outcome": "active; multisite active"}

Here are 5 molecules. What values of outcome were reported for them?
1. O=CNNC=O
2. ClC1=C(Cl)[C@@]2(Cl)[C@@H]3[C@@H](Cl)[C@H](Cl)C[C@@H]3C1(Cl)C2(Cl)Cl
3. COc1cccc2c1cc([N+](=O)[O-])c1c(C(=O)O)cc3c(c12)OCO3
4. Cn1nc(CO)nc1NCCCOc1cccc(CN2CCCCC2)c1
5. COc1c2occc2cc2ccc(=O)oc12

active; multisex active
active; multisex active
active; multisex active
active; multisex active
active; multisite active
